Source: paper PMC9822194

Recorded measurements of IC50, one per entry
- Test system: OSCC cell lines (SCC 4, SCC-9 and SCC-25)
- test: MTT assay, mean over three OSCC cell lines and average selectivity index
- Format: cell-based, Human
- particulars: Homo sapiens; mean of SCC9, SCC25, SCC4; read-out: Oral Tumor Cells Mean IC50
Respond numerically; units are µM and should not be typed.

CC(C)=CCC1=C(O)C(=O)c2ccccc2C1=O [Lapachol, reference compound]    61.1

Here is the next item to consider.
INPUT: Look up IC50 with OSCC cell lines (SCC 4, SCC-9 and SCC-25) for this molecule: COc1cccc2c1C(=O)c1c(O)c3c(c(O)c1C2=O)C[C@@](O)(C(=O)CO)C[C@@H]3O[C@H]1C[C@H](N)[C@H](O)[C@H](C)O1 [Doxorubicin]
OUTPUT: 4.73
